Recorded values, source the supplement of paper PMC11196671.

# ASSAY_TEXT: PET hydrolysis product formed (TPA+MHET+BHET, UV-Vis) per mg enzyme (mmol/mg enzyme); higher = more PET depolymerisation activity; extreme values may be limits of the assay
# ASSAY_CONDITIONS: PET substrate: aFilm; 60 °C; pH 7.5; 24 h
MEASURED_PARAMETER: PET hydrolysis product formed
// response body must contain only the number

Request: State its PET hydrolysis product formed for this sequence: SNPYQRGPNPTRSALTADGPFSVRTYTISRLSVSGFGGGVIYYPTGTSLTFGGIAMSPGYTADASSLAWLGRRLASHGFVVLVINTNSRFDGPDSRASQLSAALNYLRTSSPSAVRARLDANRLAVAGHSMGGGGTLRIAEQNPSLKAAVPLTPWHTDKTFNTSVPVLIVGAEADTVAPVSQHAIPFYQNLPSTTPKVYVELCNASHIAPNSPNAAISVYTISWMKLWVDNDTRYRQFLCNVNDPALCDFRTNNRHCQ [LCC-ICCG RIP]
Result: 0.775

Request: Could you please provide reported PET hydrolysis product formed for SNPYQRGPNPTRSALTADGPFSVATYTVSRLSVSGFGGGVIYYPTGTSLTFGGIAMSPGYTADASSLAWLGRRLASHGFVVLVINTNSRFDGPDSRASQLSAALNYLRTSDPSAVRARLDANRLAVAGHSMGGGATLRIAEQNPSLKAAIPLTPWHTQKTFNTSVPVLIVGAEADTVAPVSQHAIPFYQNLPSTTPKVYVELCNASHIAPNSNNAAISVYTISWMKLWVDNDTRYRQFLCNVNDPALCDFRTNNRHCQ [LCC-ICCG DAQI] ? Thanks!
Result: 1.37

Request: Let me know recorded PET hydrolysis product formed for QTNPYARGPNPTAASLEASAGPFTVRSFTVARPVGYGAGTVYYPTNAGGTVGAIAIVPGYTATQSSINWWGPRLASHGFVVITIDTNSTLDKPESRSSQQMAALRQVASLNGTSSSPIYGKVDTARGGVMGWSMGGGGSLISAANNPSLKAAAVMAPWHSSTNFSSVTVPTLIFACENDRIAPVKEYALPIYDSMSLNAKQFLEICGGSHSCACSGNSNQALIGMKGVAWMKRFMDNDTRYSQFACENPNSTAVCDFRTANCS [HotPETase] , thanks.
Result: 1.02

Request: Indicate its recorded PET hydrolysis product formed; the sequence in question is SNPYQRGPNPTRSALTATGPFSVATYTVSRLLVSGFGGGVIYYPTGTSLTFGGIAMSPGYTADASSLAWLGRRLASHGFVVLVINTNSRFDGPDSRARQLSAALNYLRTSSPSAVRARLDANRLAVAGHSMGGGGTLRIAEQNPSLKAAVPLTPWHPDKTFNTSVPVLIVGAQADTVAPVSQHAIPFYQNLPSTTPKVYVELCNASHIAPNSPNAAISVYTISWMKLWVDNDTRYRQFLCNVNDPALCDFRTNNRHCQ [LCC-ICCG I6M]
Result: 1.32

Request: Look up and state reported PET hydrolysis product formed for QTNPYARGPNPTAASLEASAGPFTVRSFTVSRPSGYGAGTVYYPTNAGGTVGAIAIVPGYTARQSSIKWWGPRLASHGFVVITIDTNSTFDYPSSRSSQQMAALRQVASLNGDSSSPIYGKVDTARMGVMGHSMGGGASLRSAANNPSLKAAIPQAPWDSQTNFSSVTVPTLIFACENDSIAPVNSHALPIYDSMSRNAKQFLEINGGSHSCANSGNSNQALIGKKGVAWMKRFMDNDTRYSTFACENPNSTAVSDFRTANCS [DuraPETase]
Result: 0.0929
